All values here come from ChEMBL document CHEMBL1782035.

Listed here are compounds together with their documented log10(IC50).
target: Mitogen-activated protein kinase 8 (Homo sapiens); experiment: Inhibition of JNK1 using biotinylated ATF2 and ATP substrates by HTRF assay
Sequence (P45983 whole entry): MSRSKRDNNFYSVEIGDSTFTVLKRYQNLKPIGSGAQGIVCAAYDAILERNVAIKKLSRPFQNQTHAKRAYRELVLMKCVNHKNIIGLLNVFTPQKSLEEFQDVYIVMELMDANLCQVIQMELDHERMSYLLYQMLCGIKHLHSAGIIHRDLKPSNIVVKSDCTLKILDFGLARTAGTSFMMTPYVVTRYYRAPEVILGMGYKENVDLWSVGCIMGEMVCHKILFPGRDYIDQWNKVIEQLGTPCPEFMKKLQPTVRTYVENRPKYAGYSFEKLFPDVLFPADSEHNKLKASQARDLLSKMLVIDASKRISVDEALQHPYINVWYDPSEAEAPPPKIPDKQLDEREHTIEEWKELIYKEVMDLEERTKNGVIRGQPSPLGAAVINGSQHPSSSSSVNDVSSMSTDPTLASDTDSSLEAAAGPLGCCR
Would you kindly interpret these values as log10 of IC50 expressed in nM?

- C=C(C)CN1CCN(c2c(Cl)cccc2NC(=O)c2ccc(Br)o2)CC1: 2.60
- C=CCN1CCN(c2c(C)cccc2NC(=O)c2ccc(Br)o2)CC1: 2.26
- CC(C)(C)OC(=O)N1CCN(c2c(Cl)cccc2NC(=O)c2ccc(Br)o2)CC1: 3.80
- COc1ccc(C(=O)Nc2cccc(C)c2N2CCC3(CC2)OCCO3)o1: 2.65
- Cc1cccc(NC(=O)c2ccc(Br)o2)c1N1CCC2(CC1)OCCO2: 1.95

*Q* Enter reported log10(IC50) observed with Mitogen-activated protein kinase 8 (Homo sapiens) for CC(C)N1CCN(c2c(Cl)cccc2NC(=O)c2ccc(Br)o2)CC1
*A* 3.18

*Q* Observed log10(IC50) on Mitogen-activated protein kinase 8 (Homo sapiens) for CC(=O)Nc1ccc(C(=O)Nc2cccc(C)c2N2CCC3(CC2)OCCO3)o1 , please.
*A* 3.76

*Q* Provide the documented log10(IC50) with Mitogen-activated protein kinase 8 (Homo sapiens) as the system for CCc1ccc(C(=O)Nc2cccc(C)c2N2CCC3(CC2)OCCO3)o1
*A* 3.15

*Q* Form entry - test system: Mitogen-activated protein kinase 8 (Homo sapiens); read-out: log10(IC50); compound: Cc1ccc(C(=O)Nc2cccc(C)c2N2CCC3(CC2)OCCO3)o1
*A* 2.52

*Q* Lookup: log10(IC50) / Mitogen-activated protein kinase 8 (Homo sapiens) / Cc1cccc(NC(=O)c2ccc(C(F)F)o2)c1N1CCC2(CC1)OCCO2
*A* 2.41

*Q* Item Cc1cccc(NC(=O)c2ccc(F)o2)c1N1CCC2(CC1)OCCO2 with Mitogen-activated protein kinase 8 (Homo sapiens) - log10(IC50)?
*A* 2.32

*Q* Can you look up log10(IC50) on Mitogen-activated protein kinase 8 (Homo sapiens) for C=CCN1CCN(c2c(Cl)cccc2NC(=O)c2nc(Br)cs2)CC1 ?
*A* 3.26
